# target-under-test: hROMK (human Kir1.1) (Homo sapiens (Human), UniProt P48048)
# Sequence (P48048 whole entry): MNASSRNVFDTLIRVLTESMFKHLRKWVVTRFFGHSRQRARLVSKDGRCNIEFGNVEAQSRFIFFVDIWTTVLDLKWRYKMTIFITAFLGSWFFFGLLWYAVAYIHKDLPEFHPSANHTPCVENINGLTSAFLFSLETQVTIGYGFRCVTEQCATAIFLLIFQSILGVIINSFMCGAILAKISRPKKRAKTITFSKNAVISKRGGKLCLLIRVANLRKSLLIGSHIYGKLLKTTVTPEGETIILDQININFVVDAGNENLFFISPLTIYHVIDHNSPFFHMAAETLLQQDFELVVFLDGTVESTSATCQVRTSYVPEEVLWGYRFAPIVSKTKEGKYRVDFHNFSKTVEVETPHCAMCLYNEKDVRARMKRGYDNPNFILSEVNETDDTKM
# method: cell-based
# run-parameters: CHO T-Rex hROMK stable cell line; thallium flux; 10-point concentration response curve; read-out: Human ROMK Th Flux IC50
pIC50: −log10 of the molar value.
measurement-kind: pIC50

* Cc1c([C@@H]2CN(Cc3cnc(-n4cc(C#N)c(C(F)F)n4)nc3)CCN2)ccc2c1COC2=O | 7.68
* Cc1cc(N2CC(CN3CCN[C@H](c4ccc5c(c4C)COC5=O)C3)CC2=O)ncc1C#N (single isomer, unassigned) | 7.44
* Cc1c([C@@H]2CN(Cc3ccc(-n4cnc(C#N)n4)nc3)CC(=O)N2)ccc2c1COC2=O | 6.82
* Cc1cc(-n2cc(CCN3CCO[C@H](c4ccc5c(c4C)COC5=O)C3)cn2)ncc1C#N | 6.72
* Cc1c([C@@H]2CN(Cc3ccc(-c4ccc(=O)n(C)c4)nc3)C[C@H](C)N2)ccc2c1COC2=O | 6.33
* Cc1cc(-n2cc(CN3C[C@@H](c4ccc5c(c4C)COC5=O)N[C@@H](C)C3)n(C)c2=O)ccn1 | 7.44
* Cc1c([C@@H]2CN(Cc3cnn(-c4cnccn4)c3)CCO2)ccc2c1COC2=O | 6.11

###

# target-under-test: hROMK (human Kir1.1) (Homo sapiens (Human))
# method: cell-based
# run-parameters: CHO T-Rex hROMK stable cell line; thallium flux; 10-point concentration response curve; read-out: Human ROMK Th Flux IC50
pIC50: −log10 of the molar value.
satisfied means recorded pIC50 is 7 or above; not satisfied means it is below 7.

• COc1c(CN2C[C@@H](c3ccc4c(c3C)COC4=O)OC2=O)cnn1-c1cc(C)c(C#N)cn1 = not satisfied
• Cc1cn(-c2ncc(CN3CCN[C@H](c4ccc5c(c4C)COC5=O)C3)cn2)cn1 = satisfied
• Cc1cc(-n2cnc(CN3C[C@@H](c4ccc5c(c4C)COC5=O)N[C@@H](C)C3)n2)ncc1C#N = satisfied
• COc1cc(N2CC(CN3C[C@@H](c4ccc5c(c4C)COC5=O)N[C@@H](C)C3)CC2=O)ccn1 (stereo partly drawn) = not satisfied
• COc1cc(-n2ncc(CN3CCN[C@H](c4ccc5c(c4C)COC5=O)C3)n2)nc(C)c1C#N = satisfied
• COc1cc(-n2cc(CN3CCN[C@H](c4ccc5c(c4C)COC5=O)C3)nn2)ncc1C#N = satisfied
• Cc1c([C@@H]2CN(Cc3ccc(-n4cc(C#N)c(OC(F)F)n4)nc3)CCN2)ccc2c1COC2=O = satisfied
• Cc1cc(C#N)ccc1-n1cc(CN2CCO[C@H](c3ccc4c(c3C)COC4=O)C2)cn1 = satisfied
• Cc1cncc(-n2cc(CN3CCO[C@H](c4ccc5c(c4C)COC5=O)C3)cn2)n1 = not satisfied
• COc1cc(-n2cc(CN3C[C@@H](c4ccc5c(c4C)COC5=O)N[C@@H](C)C3)cn2)ncn1 = satisfied
• Cc1c([C@@H]2CN(Cc3cn(-c4ccc5oc(=O)n(C)c5c4)nn3)CC(=O)N2)ccc2c1COC2=O = not satisfied
• Cc1cc(-n2ccc(CN3C[C@@H](c4ccc5c(c4C)COC5=O)N[C@@H](C)C3)cc2=O)ncc1C#N = not satisfied

###

# target-under-test: hERG channels (Homo sapiens (Human), UniProt Q12809)
# Sequence (Q12809 whole entry): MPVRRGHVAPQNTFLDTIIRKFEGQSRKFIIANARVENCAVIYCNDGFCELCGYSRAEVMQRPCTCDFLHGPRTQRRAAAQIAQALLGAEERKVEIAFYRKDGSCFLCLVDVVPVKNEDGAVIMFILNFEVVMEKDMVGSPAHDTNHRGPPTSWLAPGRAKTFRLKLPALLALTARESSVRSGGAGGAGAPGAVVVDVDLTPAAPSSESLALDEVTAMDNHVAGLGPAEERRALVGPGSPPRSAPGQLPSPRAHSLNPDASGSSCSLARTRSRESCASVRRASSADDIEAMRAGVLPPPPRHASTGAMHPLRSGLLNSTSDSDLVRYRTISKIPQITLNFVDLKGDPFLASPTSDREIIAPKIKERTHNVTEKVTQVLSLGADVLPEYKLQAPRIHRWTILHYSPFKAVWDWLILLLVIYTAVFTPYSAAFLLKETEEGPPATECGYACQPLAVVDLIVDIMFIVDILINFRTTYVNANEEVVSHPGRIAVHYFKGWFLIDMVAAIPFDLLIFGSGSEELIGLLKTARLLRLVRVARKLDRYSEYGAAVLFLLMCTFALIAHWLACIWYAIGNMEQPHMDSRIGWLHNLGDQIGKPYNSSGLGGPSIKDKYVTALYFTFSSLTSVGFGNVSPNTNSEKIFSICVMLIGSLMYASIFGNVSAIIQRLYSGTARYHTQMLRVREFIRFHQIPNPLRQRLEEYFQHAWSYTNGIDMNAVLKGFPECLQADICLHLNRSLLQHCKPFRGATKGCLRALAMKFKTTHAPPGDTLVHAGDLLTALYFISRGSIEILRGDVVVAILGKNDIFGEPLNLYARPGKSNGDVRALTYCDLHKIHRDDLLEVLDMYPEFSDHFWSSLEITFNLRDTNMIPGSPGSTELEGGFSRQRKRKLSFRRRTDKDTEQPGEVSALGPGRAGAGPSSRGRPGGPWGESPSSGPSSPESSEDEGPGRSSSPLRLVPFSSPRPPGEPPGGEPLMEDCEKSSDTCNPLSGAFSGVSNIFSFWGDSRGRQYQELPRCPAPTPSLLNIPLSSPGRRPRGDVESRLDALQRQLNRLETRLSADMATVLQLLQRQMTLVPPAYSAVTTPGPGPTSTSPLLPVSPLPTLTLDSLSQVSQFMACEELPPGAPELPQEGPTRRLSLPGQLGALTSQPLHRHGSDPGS
# method: hERG Manual Patch Clamp Assay
# Type: cell-based
# run-parameters: human, HEK 293 cells stably expressing hERG channels, pH 7.4, 1 uM, read-out: hERG EP % Inh @ 1 uM
// values below are reported inhibition at 1 µM
measurement-kind: inhibition at 1 µM (%)

• Cc1c([C@@H]2CN(Cc3cnn(-c4cc(OC(C)C)c(C#N)cn4)c3)CCN2)ccc2c1COC2=O [Example 140-I] = 49
• Cc1c([C@@H]2CN(Cc3ccc(-n4cnc(C#N)c4)nc3)CCN2)ccc2c1COC2=O [Example 65-I] = 21
• Cc1c([C@@H]2CN(Cc3cnn(-c4ccc(C#N)nc4)c3)CCO2)ccc2c1COC2=O [Example 48-I] = 78
• Cc1ncn(-c2ccc(CN3CCN[C@H](c4ccc5c(c4C)COC5=O)C3)cn2)n1 [Example 67-I] = 7.1

###

# target-under-test: hERG channels (Homo sapiens (Human))
# method: hERG Manual Patch Clamp Assay
# Format: cell-based
# run-parameters: human, HEK 293 cells stably expressing hERG channels, pH 7.4, 1 uM, read-out: hERG EP % Inh @ 1 uM
measurement-kind: inhibition at 1 µM (%)

* COc1cc(-n2cc(CN3C[C@@H](c4ccc5c(c4C)COC5=O)N[C@@H](C)C3)nn2)nc(C)c1C#N [Example 86-I] | 8.8
* Cc1cn(-c2ccc(CN3CCN[C@H](c4ccc5c(c4C)COC5=O)C3)c(C)n2)cn1 [Example 142-I] | 8.5
* COc1cc(-c2ccc(CN3CCO[C@H](c4ccc5c(c4C)COC5=O)C3)cn2)ncc1C#N [Example 35-I] | 20
* Cc1nc(-n2ncc(CN3C[C@H](CO)N[C@H](c4ccc5c(c4C)COC5=O)C3)n2)ncc1C#N [Example 104-I] | 3.4
* Cc1nc(-n2cnc(CN3C[C@@H](c4ccc5c(c4C)COC5=O)N[C@@H](C)C3)c2)ncc1C#N [Example 164-I] | 6
* Cc1nc(-n2cnc(CN3C[C@@H](c4ccc5c(c4C)COC5=O)N[C@@H](C)C3)c2)nc(C)c1C#N [Example 95-I] | 13
* Cc1cn(-c2ccc(CN3CCN[C@H](c4ccc5c(c4C)COC5=O)C3)cn2)nn1 [Example 222-I] | 12

###

# target-under-test: hROMK (human Kir1.1) (Homo sapiens (Human), UniProt P48048)
# method: cell-based
# run-parameters: CHO T-Rex hROMK stable cell line; thallium flux; 10-point concentration response curve; read-out: Human ROMK Th Flux IC50
pIC50: −log10 of the molar value.
measurement-kind: pIC50

• COc1cc(N2CC(CN3C[C@@H](c4ccc5c(c4C)COC5=O)N[C@@H](C)C3)CC2=O)ncc1C#N (single isomer, unassigned) = 7.41
• COc1nc(-n2cnc(CN3C[C@@H](c4ccc5c(c4C)COC5=O)N[C@@H](C)C3)c2)ncc1C#N = 7.60
• Cc1c([C@@H]2CN(Cc3cnc(-n4cnc(C#N)n4)nc3)CCN2)ccc2c1COC2=O = 7.62
• Cc1cc(-n2cc(CN3CCO[C@H](c4ccc5c(c4C)COC5=O)C3)cn2)ccc1C#N = 7.59
• COc1cc(-c2ncc(CN3CCO[C@H](c4ccc5c(c4C)COC5=O)C3)s2)ncc1C#N = 7.62
• Cc1cc(-n2cc(CN3CC(c4ccc5c(c4C)COC5=O)NC(C(F)F)C3)cn2)ncc1C#N (single isomer, unassigned) = 7.15
• Cc1cc(-n2cc(CN3CC(c4ccc5c(c4C)COC5=O)NCC3CO)cn2)ncc1C#N (single isomer, unassigned) = 7.13
• Cc1cc(-c2nnc(CN3CCO[C@H](c4ccc5c(c4C)COC5=O)C3)o2)ncc1C#N = 6.59
• Cc1cc(-n2cc(CN3CC(c4ccc5c(c4C)COC5=O)C(O)C(C)(C)C3)cn2)ncc1C#N (centres unmarked) = 7.41
• Cc1c([C@@H]2CN(Cc3cn(-c4ccnc(C(F)F)n4)cn3)C[C@H](C)N2)ccc2c1COC2=O = 7.00
• COc1cc(-n2cc(CN3CCN[C@H](c4ccc5c(c4C)COC5=O)C3)c(C(N)=O)n2)ncc1C#N = 6.92
• COc1cc(-c2ccc(CN3CC(=O)N[C@H](c4ccc5c(c4C)COC5=O)C3)cn2)ncc1C#N = 6.24
• Cc1nn(-c2ncc(CN3CCN[C@H](c4ccc5c(c4C)COC5=O)C3)cn2)cc1C#N = 7.66
• Cc1c([C@@H]2CN(Cc3nnc(-c4ccc(C#N)cn4)o3)CCN2)ccc2c1COC2=O = 6.77
• COc1nc(-n2cc(CN3C[C@@H](c4ccc5c(c4C)COC5=O)N[C@@H](C)C3)cn2)ncc1C#N = 7.48
• Cc1nc(-n2ncc(CN3C[C@@H](c4ccc5c(c4C)COC5=O)N[C@@H](C)C3)n2)nc(C)c1C#N = 7.37
• Cc1cc(-n2ncc(CN3CCN[C@H](c4ccc5c(c4C)COC5=O)C3)c2C)ncc1C#N = 7.60
• COc1ncc(-n2cc(CN3C[C@@H](c4ccc5c(c4C)COC5=O)N[C@@H](C)C3)cn2)cn1 = 6.72
• Cc1c([C@@H]2CN(Cc3cnn(-c4ccc5oc(=O)n(C)c5c4)c3)CCO2)ccc2c1COC2=O = 7.29
• Cc1cc(-n2cc(CN3CC[C@@H](O)[C@H](c4ccc5c(c4C)COC5=O)C3)c(C(F)F)n2)ncc1C#N = 7.74
• Cc1cc(-n2cc(CN3CCO[C@H](c4ccc5c(c4C)COC5=O)C3)c(C)n2)ncc1C#N = 8.55
• Cc1c([C@@H]2CN(Cc3cn(-c4ccc5c(c4)OC(F)(F)O5)cn3)C[C@H](C)N2)ccc2c1COC2=O = 6.59
• Cc1cn(-c2cc(C(F)(F)F)c(CN3CCN[C@H](c4ccc5c(c4C)COC5=O)C3)cn2)cn1 = 7.06
• Cc1c([C@@H]2CN(Cc3ccc(-n4cnc(C#N)c4)nc3)CCO2)ccc2c1COC2=O = 7.80
• Cc1c([C@@H]2CN(Cc3cnn(-c4ccn(C(F)F)c(=O)c4)c3)C[C@H](C)N2)ccc2c1COC2=O = 7.59
• COc1cc(-n2cnc(CN3CCO[C@H](c4ccc5c(c4C)COC5=O)C3)c2)ncc1C#N = 7.49
• Cc1ncn(-c2ncc(CN3CCN[C@H](c4ccc5c(c4C)COC5=O)C3)cn2)c1C = 7.57
• Cc1c([C@@H]2CN(Cc3ccc(-n4cnc(C(F)F)c4)nc3)CCN2)ccc2c1COC2=O = 7.08
• Cc1cc(-n2cc(CN3CC(F)CC(c4ccc5c(c4C)COC5=O)C3)nn2)ncc1C#N (single isomer, unassigned) = 7.37
